Tested on: MDA-MB-231
Test Description: cells
Set-up: tumour cell growth suppression, dose response, 72 h
Settings: Homo sapiens, MDA-MB-231, 72 h
Assay Endpoint: pIC50
// scale note: pIC50 = -log10(conc_M); give the bare number

What the record says about N#CCc1ccc(Nc2nccc(Nc3cc(C4CCCC4)n[nH]3)n2)cc1 : pIC50 is 6.42

* * *

System: U2OS
Test Description: cells
Parameters: tumour cell growth suppression, dose response, 72 h
Settings: Homo sapiens, 72 h, parental cells
Assay Endpoint: pIC50
// scale note: pIC50 = -log10(conc_M); give the bare number

What the record says about CC(=O)c1ccc(Nc2nccc(Nc3cc(C4CCCC4)n[nH]3)n2)cc1 : pIC50 is 6.38

* * *

Test system: MDA-MB-231
Test Description: cells
Parameters: tumour cell growth suppression, dose response, 24 h
Settings: Homo sapiens, MDA-MB-231, 24 h
Assay Endpoint: IC50 (µM)
Unit µM implied. Number only.

So the reported IC50 for N#CCc1ccc(Nc2nccc(Nc3cc(C4CCCC4)n[nH]3)n2)cc1 , on MDA-MB-231, turned out to be 1.83

So the reported IC50 for CC(=O)c1c(C)c2cnc(Nc3ccc(N4CCNCC4)cn3)nc2n(C2CCCC2)c1=O , on MDA-MB-231, turned out to be 5.2

* * *

Test system: T47D
Test Description: cells
Parameters: tumour cell growth suppression, dose response, 24 h
Settings: Homo sapiens, 24 h, parental cells
Assay Endpoint: IC50 (nM)
Unit nM implied. Number only.

What the record says about CC(=O)c1c(C)c2cnc(Nc3ccc(N4CCNCC4)cn3)nc2n(C2CCCC2)c1=O : IC50 is 2150
